- study_system: Receptor-interacting serine/threonine-protein kinase 2 (Homo sapiens) (UniProt O43353)
- Sequence (O43353 whole entry): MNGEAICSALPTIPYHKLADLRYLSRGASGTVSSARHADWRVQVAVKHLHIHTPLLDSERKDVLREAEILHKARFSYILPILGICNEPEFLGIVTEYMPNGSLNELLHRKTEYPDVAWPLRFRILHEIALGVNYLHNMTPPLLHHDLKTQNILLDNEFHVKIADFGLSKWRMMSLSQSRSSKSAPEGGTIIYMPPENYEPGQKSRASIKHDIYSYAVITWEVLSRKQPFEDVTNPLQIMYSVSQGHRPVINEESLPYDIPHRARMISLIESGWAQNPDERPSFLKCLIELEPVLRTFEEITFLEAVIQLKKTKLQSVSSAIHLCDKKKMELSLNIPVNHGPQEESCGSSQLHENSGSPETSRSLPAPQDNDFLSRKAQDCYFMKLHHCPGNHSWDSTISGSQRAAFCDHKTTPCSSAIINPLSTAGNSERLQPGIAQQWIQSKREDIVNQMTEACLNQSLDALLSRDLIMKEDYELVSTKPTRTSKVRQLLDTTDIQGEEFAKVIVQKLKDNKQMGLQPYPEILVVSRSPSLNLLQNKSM
- assay_method_text: Inhibition of wild type recombinant human His6-tagged RIPK2 at 5 uM using RS repeat peptide substrate incubated for 2 hrs by ADP-Glo assay
Let's look at some compounds and their measured inhibition.
quantity: inhibition

                                chem_smiles  readout_value
0  CNC(=O)c1cc(Oc2ccc(NC(=O)Nc3ccc(CC(=O)O)cc3)c(F)c2)ccn1            18%
1  CNC(=O)c1cc(Oc2ccc(NC(=O)Nc3ccc(SCC(=O)O)c(F)c3)c(F)c2)ccn1            70%
2  CNC(=O)c1cc(Oc2ccc(NC(=O)Nc3ccc(SCC(=O)O)cc3)c(F)c2)ccn1            27%
3  CNC(=O)c1cc(Oc2ccc(NC(=O)Nc3cccc(C(C)(C)C(=O)O)c3)c(F)c2)ccn1            47%
4  CNC(=O)c1cc(Oc2ccc(NC(=O)Nc3cccc(SCC(=O)O)c3)c(F)c2)ccn1            25%

* * *

- study_system: Receptor-interacting serine/threonine-protein kinase 2 (Homo sapiens) (UniProt O43353)
- assay_method_text: Inhibition of wild type recombinant human His6-tagged RIPK2 at 0.5 uM using RS repeat peptide substrate incubated for 2 hrs by ADP-Glo assay
Calls of active or inactive are those of the source. No cut-off for these calls is given here.
quantity: inhibition

In [3]: df
Out[3]:
                                chem_smiles                              study_system  readout_value
0  CNC(=O)c1cc(Oc2ccc(NC(=O)Nc3ccc(C(=O)O)cc3)c(F)c2)ccn1  Receptor-interacting serine/threonine-protein kinase 2 (Homo sapiens) (UniProt O43353)       inactive
1  CNC(=O)c1cc(Oc2ccc(NC(=O)Nc3ccc(N4CC(=O)NS4(=O)=O)c(C)c3)c(F)c2)ccn1  Receptor-interacting serine/threonine-protein kinase 2 (Homo sapiens) (UniProt O43353)             1%
2  CNC(=O)c1cc(Oc2ccc(NC(=O)Nc3cccc(C(C)(C)N)c3)c(F)c2)ccn1  Receptor-interacting serine/threonine-protein kinase 2 (Homo sapiens) (UniProt O43353)            32%
3  CNC(=O)c1cc(Oc2ccc(NC(=O)Nc3ccc(OCCS(C)(=O)=O)c(C)c3)c(F)c2)ccn1  Receptor-interacting serine/threonine-protein kinase 2 (Homo sapiens) (UniProt O43353)            35%
4  CNC(=O)c1cc(Oc2ccc(NC(=O)Nc3cccc(CCN)c3)c(F)c2)ccn1  Receptor-interacting serine/threonine-protein kinase 2 (Homo sapiens) (UniProt O43353)            12%
5  CNC(=O)c1cc(Oc2ccc(NC(=O)Nc3cccc(C(=O)O)c3)c(F)c2)ccn1  Receptor-interacting serine/threonine-protein kinase 2 (Homo sapiens) (UniProt O43353)       inactive
